Tested on: RT-deficient HIV-I(IIIB) isolate
assay-summary: Inhibition of HIV-I induced cell fusion (8E5 cells co-cultivated with PHA stimulated human PBLs)
Assay type: cell-based
condition-label: Concentration (M) 5x10^-7; after 24 hours
value-type: Inhibition of HIV-I induced cell fusion (number of syncytia)

Example entries and their recorded answers appear below.
{"columns": ["substance", "tested-target", "test-result"],
 "data": [
  ["[RKSIHKGPGRAFYT]4-MLC", "RT-deficient HIV-I(IIIB) isolate", "+++"],
  ["[Ac-GPGRAF]8-MLC", "RT-deficient HIV-I(IIIB) isolate", "+++"],
  ["[GPGRAF]8-MLCD", "RT-deficient HIV-I(IIIB) isolate", "+++"],
  ["[RKSIHTGPGRAFYT]4-MLC", "RT-deficient HIV-I(IIIB) isolate", "+++"]
]}

Quick note, Inhibition of HIV-I induced cell fusion (number of syncytia) for `[IGPGRAF]8-MLC` landed at +++

Hey, just so you know, these numbers are from patent EP0719281B1.
